Target: CIB1 and αIIb interaction (CIB1-GST : F-αIIb peptide) (Homo sapiens, UniProt Q99828)
Construct: made in house; host or cells: BL-21 plus RIL cells (E. coli)
Sequence (Q99828 whole entry): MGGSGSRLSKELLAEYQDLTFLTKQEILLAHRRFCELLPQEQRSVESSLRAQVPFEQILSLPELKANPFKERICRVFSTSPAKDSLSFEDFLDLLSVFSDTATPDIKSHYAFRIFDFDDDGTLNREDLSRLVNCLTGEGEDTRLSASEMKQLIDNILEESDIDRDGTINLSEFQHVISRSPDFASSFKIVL
Experiment: FP assay, 1536-well qHTS format (primary and confirmatory screen)
Assay type: binding
Details: qHTS primary screen hits, Table S2; read-out: IC50
Rule for this label: True means IC50 is less than 40 µM; False means IC50 is at least 40 µM.

>>> class("O=C(O)C(F)(F)F.OCc1ccc(-c2ccc3ncnc(N4CCOCC4)c3c2)o1")
"False"
>>> class("COC(=O)c1cc(Cl)ccc1NS(=O)(=O)C(F)(F)F")
"False"
>>> class("O=C(O)C(F)(F)F.O=C1Nc2ccccc2/C1=N/NC(=S)Nc1ccc(Oc2ccccc2)cc1")
"True"
>>> class("COc1cc2c(cc1OC)CN(CCc1ccc(NC(=O)c3cc(OC)c(OC)cc3NC(=O)c3cnc4ccccc4c3)cc1)CC2")
"False"
>>> class("Oc1c(I)cc(Cl)c2cccnc12")
"False"
>>> class("COc1cccc(C(=O)c2no[n+]([O-])c2C(=O)c2cccc(OC)c2)c1")
"True"
>>> class("COc1cc(NS(=O)(=O)c2cccc([N+](=O)[O-])c2)c2ncccc2c1")
"False"
>>> class("C[N+](C)(C)CC(=O)O.[Cl-]")
"False"

###

Biological target: GST-CIB1 : F-scrambled peptide (Homo sapiens)
Construct: made in house; host or cells: BL-21 plus RIL cells (E. coli)
Experiment: FP scrambled-peptide counter screen, 1536-well format
Assay type: binding
Conditions: scrambled-peptide counterscreen
Recorded measurements of COUNTERSCREEN Efficacy (%), one per entry
observable: COUNTERSCREEN Efficacy (%)

>>> numeric_result("CCOC(=O)N1CCN([N+]([O-])=NOc2ccc([N+](=O)[O-])cc2[N+](=O)[O-])CC1")
-56
>>> numeric_result("Cc1ccc(S(=O)(=O)Nc2cc([N+](=O)[O-])ccc2C(=O)Nc2nc(-c3ccccc3)cs2)cc1.O=C(O)C(F)(F)F")
42
>>> numeric_result("Oc1ccc2ccccc2c1SSc1c(O)ccc2ccccc12 [NCGC00186047-02, IPA-3, reference compound]")
-34
>>> numeric_result("O=C(O)C(F)(F)F.OCc1ccc(-c2ccc3ncnc(NCc4nccs4)c3c2)o1")
-16
>>> numeric_result("O=c1oc2ccccc2c(O)c1C(CC(O)c1ccc(-c2ccc(Br)cc2)cc1)c1ccccc1 (stereo not shown)")
109
>>> numeric_result("Cc1csc(CNc2ncnc3ccc(-c4ccc(CO)o4)cc23)n1.O=C(O)C(F)(F)F")
-25
>>> numeric_result("CC(=O)Oc1cccc2c1C(=O)c1c(OC(C)=O)cc(C(=O)O)cc1C2=O")
-53

###

Biological target: CIB1 and αIIb interaction (CIB1-GST : F-αIIb peptide) (Homo sapiens, UniProt Q99828)
Construct: made in house; host or cells: BL-21 plus RIL cells (E. coli)
Assay: FP assay, 1536-well qHTS format (primary and confirmatory screen)
Assay type: binding
Details: qHTS primary screen hits, Table S2; negative sign = inhibitory curve; several classes where COUNT > 1
fulfilled means recorded Curve Class is -2 or above; not fulfilled means it is below -2.

>>> class("CCCCCc1c2c(cc(O)c1C(=O)O)OC(=O)c1c(cc(OC)cc1C(=O)CCCC)O2.O=C(O)C(F)(F)F")
"fulfilled"
>>> class("O=C(O)C(F)(F)F.O=C1CCCC2=C1C1(CCCOC1)N=C(Nc1nc3ccccc3o1)N2 (stereo not shown)")
"not fulfilled"
>>> class("CC1=NN(c2ccccc2)C(=O)C1")
"not fulfilled"
>>> class("Nc1ccc(-c2nc3ccc(-c4nc5cc(N)ccc5[nH]4)cc3[nH]2)cc1")
"not fulfilled"
>>> class("NC(=O)C1CCN(c2nc(-c3ccccc3N)cs2)CC1.O=C(O)C(F)(F)F")
"not fulfilled"
>>> class("Oc1c(Cl)cc(Cl)c(Cl)c1Cc1c(O)c(Cl)cc(Cl)c1Cl")
"not fulfilled"
>>> class("COc1ccc(/C=C/C(=O)Nc2ccccc2C(=O)O)cc1OC")
"not fulfilled"
>>> class("OCc1ccc(-c2ccc(-c3ccc(CO)s3)o2)s1")
"not fulfilled"
>>> class("C=CCNc1oc(-c2ccc(-c3ccccc3)cc2)nc1C#N.O=C(O)C(F)(F)F")
"fulfilled"
>>> class("Oc1ccc(-c2nnn[nH]2)c2cccnc12")
"fulfilled"
>>> class("CC(=O)Nc1sc2c(c1-c1nc3ccccc3o1)CCN(C(C)C)C2.O=C(O)C(F)(F)F")
"not fulfilled"
>>> class("O=C(c1ccccc1)c1no[n+]([O-])c1C(=O)c1ccccc1")
"fulfilled"
>>> class("NS(=O)(=O)c1ccc(Nc2nc(-c3ccccc3)cs2)cc1.O=C(O)C(F)(F)F")
"not fulfilled"
>>> class("O=S1(=O)N=C(Oc2ccccc2)c2ccccc21")
"not fulfilled"
>>> class("NS(=O)(=O)c1ccc(Cc2c(-c3cccc(-c4ccccc4F)c3)nn(-c3nc(C(=O)O)cs3)c2O)cc1.O=C(O)C(F)(F)F")
"not fulfilled"
>>> class("COc1ccc(NC(=O)c2cccs2)cn1.O=C(O)C(F)(F)F")
"not fulfilled"

###

Molecular target: CIB1 and αIIb interaction (CIB1-GST : F-αIIb peptide) (Homo sapiens)
Construct: made in house; host or cells: BL-21 plus RIL cells (E. coli)
Assay: FP assay, 1536-well qHTS format (primary and confirmatory screen)
Assay type: binding
Conditions: qHTS primary screen hits, Table S2; negative = inhibition
observable: Efficacy (%)

>>> numeric_result("COc1cccc2nc3c(C(=O)NCCN(C)C)cccc3cc12.O=C(O)C(F)(F)F")
-37
>>> numeric_result("NC(=O)c1cccc(-c2cnc3c(O)ccc(C(=O)O)c3c2)c1.O=C(O)C(F)(F)F")
-35
>>> numeric_result("O=C(Nc1ccc(S(=O)(=O)N2CCOCC2)cc1)c1ccc(N2CCc3ccccc3C2)cc1")
-34
>>> numeric_result("O=C1C(SCCO)=C(SCCO)C(=O)c2ccccc21")
-77
>>> numeric_result("NC(=O)c1ccc(O)c2ncccc12")
-24
>>> numeric_result("Cc1ccc(S(=O)(=O)Nc2cnccc2C(=O)Nc2nc(-c3cccc(C)c3)cs2)cc1.O=C(O)C(F)(F)F")
-40
>>> numeric_result("Cl.O=[N+]([O-])c1cccc(CNc2ccc(S(=O)(=O)Nc3nccs3)cc2)c1O")
-27
>>> numeric_result("O=C(Cc1ccc(Cl)c(Cl)c1)Nc1ccc(S(=O)(=O)Nc2nncs2)cc1.O=C(O)C(F)(F)F")
-24
>>> numeric_result("CCc1ccc(NC(=O)C(=O)NNC(=O)c2cccs2)cc1.O=C(O)C(F)(F)F")
-22

###

Target: GST-CIB1 : F-scrambled peptide (Homo sapiens, UniProt Q99828)
Construct: made in house; host or cells: BL-21 plus RIL cells (E. coli)
Assay: FP scrambled-peptide counter screen, 1536-well format
Assay type: binding
Details: scrambled-peptide counterscreen
observable: COUNTERSCREEN Efficacy (%)

>>> numeric_result("Cc1cc(Nc2c(Nc3nnc(-c4ccncc4)s3)c(=O)c2=O)ccc1Cl.O=C(O)C(F)(F)F [NCGC00241510-01]")
-33
>>> numeric_result("COc1cc(C(=O)NS(=O)(=O)c2ccccc2C)ccc1Cc1cn(C)c2ccc(NC(=O)OC3CCCC3)cc12 [NCGC00164547-06]")
37
>>> numeric_result("N#Cc1cnc(NS(=O)(=O)c2ccc(NC(=O)Cc3ccc(Cl)c(Cl)c3)cc2)s1.O=C(O)C(F)(F)F [NCGC00250147-02]")
20
>>> numeric_result("O=C(O)C(F)(F)F.O=c1c2ccccc2nc2sc(NS(=O)(=O)c3ccc4c(c3)CCC4)nn12 [NCGC00187579-01]")
62
>>> numeric_result("Cc1ccc(S(=O)(=O)Nc2cnccc2C(=O)Nc2nc3ccccc3s2)cc1.O=C(O)C(F)(F)F [NCGC00343897-01]")
17
>>> numeric_result("COc1ccc(C(=O)Nc2nc(-c3ccccc3)cs2)c(NS(=O)(=O)c2ccc(C)cc2)c1.O=C(O)C(F)(F)F [NCGC00262390-01]")
92

###

Biological target: CIB1 and αIIb interaction (CIB1-GST : F-αIIb peptide) (Homo sapiens)
Construct: made in house; host or cells: BL-21 plus RIL cells (E. coli)
Assay: FP assay, 1536-well qHTS format (primary and confirmatory screen)
Format: binding
Conditions: confirmatory screen, qHTS curve class; negative sign = inhibitory curve
observable: CONFIRMATORY SCREEN Curve Class

>>> numeric_result("N#Cc1ccc(N2N=C3c4ccc(C(=O)O)cc4CC[C@@H]3[C@@H]2C2CCCC2)cc1Cl [NCGC00485023-01]")
-2.4
>>> numeric_result("CCCC1CCN(C(=O)COC(=O)c2ccc(S(C)(=O)=O)c([N+](=O)[O-])c2)CC1 [NCGC00188533-01]")
-1.4
>>> numeric_result("COc1cccc(-c2csc(NC(=O)c3ccncc3NS(=O)(=O)c3ccc(C)cc3)n2)c1 [NCGC00319006-02]")
-2.2
>>> numeric_result("Cc1ccc(S(=O)(=O)Nc2cnccc2C(=O)Nc2nc(-c3ccc(Cl)cc3)cs2)cc1.O=C(O)C(F)(F)F [NCGC00318981-01]")
-1.2
>>> numeric_result("O=C1C(I)=CC(=C(c2cc(I)c([O-])c(I)c2)c2ccccc2C(=O)[O-])C=C1I.[Na+].[Na+] [NCGC00161636-02]")
-1.2
>>> numeric_result("Cc1ccc(S(=O)(=O)Nc2cc([N+](=O)[O-])ccc2C(=O)Nc2nc(-c3ccccc3)cs2)cc1.O=C(O)C(F)(F)F [NCGC00262992-01]")
-1.1
>>> numeric_result("N#Cc1cnc(NS(=O)(=O)c2ccc(NC(=O)Cc3ccc(Cl)c(Cl)c3)cc2)s1.O=C(O)C(F)(F)F [NCGC00250147-02]")
-1.2
>>> numeric_result("CN1CCCN=C1/C=C/c1cccs1.O=C(O)c1cc2ccccc2c(Cc2c(O)c(C(=O)O)cc3ccccc23)c1O [NCGC00094552-04]")
-2.4
>>> numeric_result("COC(=O)C12C(=O)C(C)(O)C(=O)C1(C)C(C)=CC1C34CCC(OC3=O)C(C)(CO)C4CCC12C (stereo not drawn) [NCGC00380147-01]")
-2.2
>>> numeric_result("CNC(=S)N/N=C1\\C(=O)Nc2ccccc21.O=C(O)C(F)(F)F [NCGC00229528-01]")
-1.4
>>> numeric_result("Oc1ccc2ccccc2c1SSc1c(O)ccc2ccccc12 [NCGC00186047-02, IPA-3, reference compound]")
-1.4
>>> numeric_result("Cl.NC(CO)(CO)CCc1ccc(Sc2cccc(OCc3ccccc3)c2)cc1Cl [NCGC00250388-02]")
-2.4
